Biological target: HIV-1 92RW020 Env (HIV-1)
Experiment: cell-based or functional assay
Listing: IC50, TZM-bl pseudovirus neutralization of selected binders
Numbers only here, please. The scale is µg/mL.

Below are worked cases with known answers.
BINDER	IC50, TZM-bl pseudovirus neutralization (µg/mL)
1456_A12 (PG16) (TCN-117) (antibody, V domains shown) VH: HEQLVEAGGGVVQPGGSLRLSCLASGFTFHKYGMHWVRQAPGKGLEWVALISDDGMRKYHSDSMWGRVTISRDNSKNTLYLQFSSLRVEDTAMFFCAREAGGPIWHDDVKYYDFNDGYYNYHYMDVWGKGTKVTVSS VL: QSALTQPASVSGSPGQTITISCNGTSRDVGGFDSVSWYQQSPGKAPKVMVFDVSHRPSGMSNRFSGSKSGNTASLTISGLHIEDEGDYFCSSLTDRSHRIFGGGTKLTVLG	0.05
1489_I13 (PG16) (TCN-120) (antibody, V domains shown) VH: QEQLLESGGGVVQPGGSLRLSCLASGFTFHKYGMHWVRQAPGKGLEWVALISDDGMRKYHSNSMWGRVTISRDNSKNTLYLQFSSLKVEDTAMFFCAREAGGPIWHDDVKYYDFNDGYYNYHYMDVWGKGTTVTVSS VL: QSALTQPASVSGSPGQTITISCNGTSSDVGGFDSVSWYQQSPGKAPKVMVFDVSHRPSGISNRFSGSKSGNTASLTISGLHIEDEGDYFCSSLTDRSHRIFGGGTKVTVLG	0.03

Shifting focus to the binder that follows.
Query: IC50, TZM-bl pseudovirus neutralization for 1503_H05 (PG16) (TCN-119) (antibody, V domains shown) VH: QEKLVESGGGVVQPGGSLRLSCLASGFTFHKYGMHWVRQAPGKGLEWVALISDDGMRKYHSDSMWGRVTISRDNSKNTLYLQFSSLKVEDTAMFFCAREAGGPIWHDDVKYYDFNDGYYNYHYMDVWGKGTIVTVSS VL: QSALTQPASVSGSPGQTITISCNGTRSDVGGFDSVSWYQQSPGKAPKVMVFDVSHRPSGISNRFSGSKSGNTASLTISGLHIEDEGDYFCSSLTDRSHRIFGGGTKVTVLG ?
Reply: 0.02
